assay: Thermostability, temperature of aggregation (ProteoStat Thermal Shift); type: physicochemical; parameters: key: temperature in °C; details: pH 6.0
// reported Tagg per item
property measured: Tagg

SEQID-00100: nutritive polypeptide (protein, listed as Lactobacillus acidophilus) MSEEEIFNKIKDLIADNFEVDKDSITENTNFMNDLDADSIDLVEFILQLEDEFGAEIPDDEAEKIKTVGDAVSYIKSHQG : 95
SEQID-00511: protein of the 168 nutritive polypeptide library (protein, Arthrospira platensis C1, protein of the 168 nutritive polypeptide library) MVLFGFGKKKSLPKPEEALPGRDRVMSVPDRHYINGNPLKPPFPEGMEQAVFGLGCFWGAERKFWQQQGVFSTAVGYAGGYTKNPTYEEVCSGMTGHTEVVLVVFDPKVISYTDLLKLFWESHNPTQGMRQGNDTGTQYRSAIYTYSDEQQRLALASRDRYQQALSAASYGEITTEIAPAQEFYYAEAYHQQYLGKNPNGYCGLGGTGVGCPAMTETSV : 39.5
SEQID-00622: protein of the 168 nutritive polypeptide library (protein, listed as Oryza sativa, source: /note="subsp. japonica", protein of the 168 nutritive polypeptide library) MASEGAVSPAFAYTVVYVKDVAKSAAFYSAAFGYTVRRLDQSHKWAELESGTTTIAFTPLHQRETDALTGAVQLPDSAGERGPVEICFDYADVDAAYRRAVDSGAVPVSPPEQKSWGQKVGYVRDIDGIIVRMGSHVRA : 46
